# measured_on: Cytochrome P450 2D6 (Homo sapiens) (UniProt P10635)
# Sequence (P10635 whole entry, looked up): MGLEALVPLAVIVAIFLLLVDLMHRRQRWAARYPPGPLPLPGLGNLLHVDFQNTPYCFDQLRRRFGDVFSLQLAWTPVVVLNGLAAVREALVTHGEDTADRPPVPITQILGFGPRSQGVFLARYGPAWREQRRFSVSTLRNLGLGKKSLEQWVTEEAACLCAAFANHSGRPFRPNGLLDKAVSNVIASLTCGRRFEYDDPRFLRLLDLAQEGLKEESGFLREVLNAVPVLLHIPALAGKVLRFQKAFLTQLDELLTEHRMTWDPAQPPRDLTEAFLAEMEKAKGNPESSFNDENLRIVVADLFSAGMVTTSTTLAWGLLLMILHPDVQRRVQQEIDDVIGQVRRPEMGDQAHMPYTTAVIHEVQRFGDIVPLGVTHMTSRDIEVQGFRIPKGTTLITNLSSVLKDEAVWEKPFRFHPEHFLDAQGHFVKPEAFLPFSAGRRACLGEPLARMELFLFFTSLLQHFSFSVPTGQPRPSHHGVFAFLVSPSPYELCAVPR
# test_protocol: Cytochrome panel assay with activity outcomes; also: % is scaled to controls: 0 for no effect and ±100 for the full control effect
# experimental_parameters: recombinant CYP, pro-luciferin dealkylation, luminescence, p450-cyp2d6; series mostly up to 57.1 µM
Among all 16,000 compounds or so, about 2,600 (16%) were called active. Not shown: some 20% with an inconclusive outcome. A selection follows.

| compound_smiles | activity, negative = inhibition |
| --- | --- |
| CCCNC(=O)OC[C@@H]1O[C@H](CCO/N=C(\C)CCC(=O)OC[C@@H]2O[C@H](c3ccccc3)C=C[C@@H]2Oc2ccc(OC)cc2)C=C[C@@H]1Oc1ccc(OC)cc1 | 5.63% [at 11.4 µM] (inactive) |
| N[C@@H](Cc1ccnnc1)C(=O)O | -0.458% [at 11.4 µM] (inactive) |
| CN(C)Cc1ccc(O)c(CN(C)C)n1 | 2.9% [at 11.4 µM] (inactive) |
| CCOC(=O)N/N=C1/C[C@@H](O)[C@@H](O)[C@@H]2[C@@H]3C(=O)N(C4CCCCC4)C(=O)[C@H]3CC[C@H]12 | -11.9% [at 11.4 µM] (inactive) |
| Nc1ccc(-c2ccc(Nc3cc(S(=O)(=O)O)c(N)c4c3C(=O)c3ccccc3C4=O)cc2)c(S(=O)(=O)O)c1 | 6.34% [at 11.4 µM] (inactive) |
| O=C(O)c1ccc(OCc2ccccc2)c(Cl)c1 | 4.91% [at 11.4 µM] (inactive) |
| CCOC(=O)c1c2c(n3ccccc13)C(=O)c1ccccc1C2=O | 5.34% [at 11.4 µM] (inactive) |
| COc1ccc(C(=O)N/N=C2/C(=O)c3c(C)cc(C)cc3CC2(C)C)cc1 | -4.67% [at 11.4 µM] (inactive) |
| C/C(=C\c1ccc(Cl)cc1)C(C)(C)C(=O)O | 6.46% [at 11.4 µM] (inactive) |
| NCCNS(=O)(=O)c1ccc(N)cc1 | 1.63% [at 11.4 µM] (inactive) |
| CN(CC(=O)O)Cc1c(O)c(Cl)cc(Cl)c1Cl | 8.14% [at 11.4 µM] (inactive) |
| Cn1c(=O)n2n(c1=O)[C@H]1[C@H](O)[C@H]3O[C@@H]3/C(=N/OC[C@@H](O)COCc3ccco3)[C@@H]1CC2 | 15.6% [at 11.4 µM] (inactive) |
| S=C(CSc1ccccc1)Nc1cccc2ccccc12 | -5.75% [at 11.4 µM] (inactive) |
| C#CCCCO/N=C1/C[C@@H](O)[C@@H](O)[C@@H]2[C@@H]3C(=O)N([C@@H](C)c4ccccc4)C(=O)[C@H]3CC[C@@H]12 | -9.9% [at 11.4 µM] (inactive) |
| CCCNC(=O)OC[C@@H]1O[C@H](CCO/N=C(\C)CCN2CCCc3nc(C)c(C)cc32)C=C[C@@H]1Oc1ccc(OC)cc1 | -18.3% [at 11.4 µM] (inactive) |
| COc1ccc2c3c([nH]c2c1)[C@H]1C[C@@H]2[C@@H](C[C@@H](O)[C@H](OC)[C@H]2C(=O)O)CN1CC3 | 7.15% [at 11.4 µM] (inactive) |
| CO[C@@H]1/C=C\CC(=O)N[C@@H](C)C(=O)OC[C@@H](OC)[C@H](C)/C=C\CC(=O)OC[C@H]1C | 10.8% [at 11.4 µM] (inactive) |
| CC(C)=CCC/C(C)=C/CO/N=C1/C[C@@H](O)[C@@H](O)[C@@H]2[C@@H]3C(=O)N(C4CCCCC4)C(=O)[C@H]3CC[C@@H]12 | 2.55% [at 11.4 µM] (inactive) |
